Target: Rac GTPase-activating protein 1 (Homo sapiens)
Sequence (Q9H0H5 whole entry): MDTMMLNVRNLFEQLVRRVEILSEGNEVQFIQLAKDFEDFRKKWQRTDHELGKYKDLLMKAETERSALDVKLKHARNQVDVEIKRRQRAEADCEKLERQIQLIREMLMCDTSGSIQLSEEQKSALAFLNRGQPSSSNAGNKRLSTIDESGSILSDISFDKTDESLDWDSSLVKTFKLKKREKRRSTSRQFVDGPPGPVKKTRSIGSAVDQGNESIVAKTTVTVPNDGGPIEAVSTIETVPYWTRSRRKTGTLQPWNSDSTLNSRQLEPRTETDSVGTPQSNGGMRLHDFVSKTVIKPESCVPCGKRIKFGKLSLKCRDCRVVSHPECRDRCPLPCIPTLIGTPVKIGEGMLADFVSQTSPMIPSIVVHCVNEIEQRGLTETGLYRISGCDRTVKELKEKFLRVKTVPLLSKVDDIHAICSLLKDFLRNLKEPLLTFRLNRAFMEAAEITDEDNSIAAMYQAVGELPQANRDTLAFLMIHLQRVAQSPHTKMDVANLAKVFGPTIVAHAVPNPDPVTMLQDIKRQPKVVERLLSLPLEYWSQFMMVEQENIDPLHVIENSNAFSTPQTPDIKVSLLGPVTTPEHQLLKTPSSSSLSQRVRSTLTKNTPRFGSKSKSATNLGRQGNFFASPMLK
Assay: MgcRacGAP GTPase-activating activity inhibitors, confirmation, biochemical, ADP Hunter fluorescence, primary and confirmatory (AID 624330)
Format: functional
Calls of active or inactive are those of the source. No rule for the calls is given here.
reportedEndpoint: IC50

Guide cases for IC50, answers given:
CCCc1nc2ccccc2c(=O)n1/N=C/c1ccc(O)c(O)c1 = 38.8 µM (active)
C[n+]1c(-c2ccccc2)cc2c(=Cc3ccccc3)c3ccccc3n21 = 58.9 µM (active)
COc1cc(OC)c(OC)cc1CN1CCN(C(=O)c2cccc3ccccc23)CC1 = 244 µM (active)
O=C(COc1ccccc1[N+](=O)[O-])N/N=C/c1ccc(O)cc1 = 80.8 µM (active)
COc1ccc(NC2CCCN(C(=O)CCCn3cncn3)C2)cc1OC (configuration not stated) = 237 µM (active)

// switching to the query compound
Ask: Using Rac GTPase-activating protein 1 (Homo sapiens) as the test system, report measured IC50 of `COCCNCc1nc(O)c2c(-c3ccccc3)c(C)sc2n1` .
Result: 225 µM (active)

Origin of the recorded values: ChEMBL document CHEMBL1201862
